Assay: Rat biodistribution of Tc-99m complexes from isolated stereoisomers (Example 24)
Conditions: (a) diastereoisomers; 1 hr pi; rats; mean from 3 animals
Measurement label: % id/organ, Heart (% id/organ)

Recorded results for 2 compounds are shown here.
Compound	% id/organ, Heart / % id/organ
CC(=NO)[C@H](C)NCC(C)(C)CN[C@H](C)C(C)=NO	0.2
CC(=NO)[C@H](C)NCC(C)(C)CN[C@@H](C)C(C)=NO (relative stereo) [Compound 1 d1]	0.7

1. CC(=NO)[C@H](C)NCCCN[C@@H](C)C(C)=NO (relative stereo) [Compound 2 d1]
2. CC(=NO)[C@H](C)NCCCN[C@H](C)C(C)=NO
Lookup: // compare: 1 vs 2 , metric % id/organ, Heart, want the smaller Refer to your chosen item by its label in the answer.
Found: 2
(2: 0.2 % id/organ, 1: 0.7 % id/organ)
